biological target: NAMPT (Homo sapiens); construct: His tag; host or cells: E. coli; test: Biochemical inhibition assay: NAMPT enzymatic reaction, NMN quantified by mass spectrometry; settings: NAMPT enzymatic assay; read-out: Biochem IC50
# binning rule on IC50: 1 (below 6 nM), 2 (6 nM to below 10 nM), 3 (10 nM or more)

Illustrative cases are given below, each with its answer.
Challenge: Would you mind sorting `CC(C)COc1cc(F)cc(S(=O)(=O)c2ccc(CNC(=O)c3cc4cnccc4[nH]3)cc2)c1` into the appropriate category?
Response given: 3

Challenge: Can you handle `O=C(NCc1ccc(S(=O)(=O)c2ccc(N3CCOCC3)nc2)cc1)c1ccc2nccn2c1` next?
Response given: 2

Challenge: And the next one, `O=C(NCc1ccc(S(=O)(=O)c2cc(F)cc(N3CCOCC3)c2)cc1)c1ccc2nccn2c1` ?
Response given: 1

Challenge: Subsequent entry: `CCCn1cc(S(=O)(=O)c2ccc(CNC(=O)c3cc4ccncc4s3)cc2)cn1`
Response given: 1

Challenge: Next compound up: `O=C(NCc1ccc(S(=O)(=O)c2ccc(N3CCOCC3)cc2)cc1)c1cnc2nccn2c1`
Response given: 1

Challenge: Similarly, `Cc1nc(C)c(S(=O)(=O)c2ccc(CNC(=O)c3cc4ccncc4o3)cc2)s1` ?
Response given: 2

Challenge: Same lookup for `Cn1ncc2ccc(S(=O)(=O)c3ccc(CNC(=O)c4cc5ccncc5o4)cc3)cc21` , please.
Response given: 1

Challenge: // same read-out, input: `O=C(NCc1ccc(S(=O)(=O)c2ccc(N3CCOCC3)nc2)cc1)c1cnc2nccn2c1`
Response given: 1

New cases:
Challenge: Categorize the following entry: `CN(C)S(=O)(=O)c1cccc(S(=O)(=O)c2ccc(CNC(=O)c3cnc4nccn4c3)cc2)c1`
Response given: 1

Challenge: Param item: `Cc1cc(C)n(-c2cccc(S(=O)(=O)c3ccc(CNC(=O)c4cc5ccncc5o4)cc3)c2)n1`
Response given: 2

---

target: NAMPT (Homo sapiens, UniProt P43490); construct: His tag; host or cells: E. coli; test: Biochemical inhibition assay: NAMPT enzymatic reaction, NMN quantified by mass spectrometry; conditions: NAMPT enzymatic assay; read-out: Biochem IC50
Sequence (P43490 whole entry): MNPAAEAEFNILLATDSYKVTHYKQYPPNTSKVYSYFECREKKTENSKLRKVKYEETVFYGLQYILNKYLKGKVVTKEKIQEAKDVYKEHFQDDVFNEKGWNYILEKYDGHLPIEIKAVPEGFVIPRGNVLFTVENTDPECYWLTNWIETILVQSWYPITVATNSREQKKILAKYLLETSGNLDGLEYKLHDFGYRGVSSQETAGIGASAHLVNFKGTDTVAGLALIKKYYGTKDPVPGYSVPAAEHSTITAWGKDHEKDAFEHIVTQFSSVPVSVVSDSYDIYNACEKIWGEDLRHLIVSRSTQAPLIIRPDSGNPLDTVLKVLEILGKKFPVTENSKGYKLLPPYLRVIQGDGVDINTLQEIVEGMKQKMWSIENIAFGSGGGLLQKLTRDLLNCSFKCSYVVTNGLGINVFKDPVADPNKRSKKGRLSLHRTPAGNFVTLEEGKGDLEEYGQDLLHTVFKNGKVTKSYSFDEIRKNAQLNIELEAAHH
pIC50: −log10 of the molar value.
Kindly return YES if reported pIC50 is no lower than 8; return NO if it is lower.

For orientation, consider the following solved cases.
Challenge: Check this compound for pIC50 at or above 8: `O=C(NCc1ccc(S(=O)(=O)c2cccc3c2OCC3)cc1)c1cc2ccncc2s1`
Response given: YES

Challenge: Next compound: `Cn1ncc2c(S(=O)(=O)c3ccc(CNC(=O)c4cnc5[nH]ncc5c4)cc3)cccc21`
Response given: NO

Would you kindly look at the next entry?
Challenge: Record `Cc1ccncc1S(=O)(=O)c1ccc(CNC(=O)c2cc3cnccc3[nH]2)cc1` ; criterion: pIC50 no lower than 8. Met?
Response given: NO

---

target: NAMPT (Homo sapiens); construct: His tag; host or cells: E. coli; assay: Biochemical inhibition assay: NAMPT enzymatic reaction, NMN quantified by mass spectrometry; conditions: NAMPT enzymatic reaction; read-out: Biochem IC50
Known IC50 of a selection of compounds
Please respond with the number in nM and leave the unit unwritten.

These recorded examples may help you get a feel for the data.
Challenge: For NAMPT (Homo sapiens), provide IC50 of `O=C(NCc1ccc(S(=O)(=O)N2CCCCC2)cc1)c1ccc2cnccc2n1` please.
Response given: 12

Challenge: Proceed to `Cc1cc(F)ccc1S(=O)(=O)c1ccc(CNC(=O)c2cnc3[nH]ncc3c2)cc1`
Response given: 78.8

Challenge: Consider next the compound `O=C(NCc1ccc(S(=O)(=O)N2CCCCC2)cc1)c1cc2cnccc2o1` in the same way.
Response given: 17

Challenge: Please give the result for `CCOc1ccc(Cl)cc1S(=O)(=O)c1ccc(CNC(=O)c2cc3ccncc3s2)cc1` too.
Response given: 2.7

Challenge: Do the same for `COc1cc(S(=O)(=O)c2ccc(CNC(=O)c3cnc4[nH]ncc4c3)cc2)ccc1F` please
Response given: 23.9

Next:
Challenge: Under NAMPT (Homo sapiens): IC50 value of `O=C(NCc1ccc(S(=O)(=O)c2ccc(Cl)c(F)c2)cc1)c1ccc2nccn2c1` ?
Response given: 7.22

Challenge: What do you get for `O=C(Nc1ccc(S(=O)(=O)N2CCCCC2)cc1)c1cc2cnccc2[nH]1` ?
Response given: 8

Challenge: Next compound up: `CCCCOc1ccc(S(=O)(=O)c2ccc(CNC(=O)c3ccc4nccn4c3)cc2)cc1`
Response given: 3.8

---

target: NAMPT (Homo sapiens, UniProt P43490); construct: His tag; host or cells: E. coli; assay: Biochemical inhibition assay: NAMPT enzymatic reaction, NMN quantified by mass spectrometry; conditions: NAMPT enzymatic assay; read-out: Biochem IC50
propertyLabel: IC50
Could you give the number and then its unit, please?

Worked examples follow.
Challenge: What value of IC50 has been recorded for this entry: `COc1ccc(S(=O)(=O)c2ccc(CNC(=O)c3cnc4[nH]ncc4c3)cc2)c(OC)n1`
Response given: 30.7 nM

Challenge: `O=C(NCc1ccc(S(=O)(=O)c2cncc(F)c2)cc1)c1ccc2nccn2c1` ?
Response given: 27.8 nM

Challenge: Also need `O=C(NCc1ccc(S(=O)(=O)c2ccc(F)c(OCC(F)(F)F)c2)cc1)c1cc2cnccc2[nH]1` , thanks.
Response given: 10.3 nM

Next:
Challenge: Request the reported IC50 associated with `Cn1ncc2cccc(S(=O)(=O)c3ccc(CNC(=O)c4cnc5[nH]ncc5c4)cc3)c21`
Response given: 91.8 nM

Challenge: Would you kindly repeat that for `O=C(NCc1ccc(S(=O)(=O)c2ccccn2)cc1)c1cc2ccncc2o1` ?
Response given: 55.1 nM

---

biological target: NAMPT (Homo sapiens); construct: His tag; host or cells: E. coli; test: Biochemical inhibition assay: NAMPT enzymatic reaction, NMN quantified by mass spectrometry; details: NAMPT enzymatic reaction; read-out: Biochem IC50
propertyLabel: IC50 (nM)
Kindly provide the numeric value in nM only, without the unit symbol.

Completed entries (count: 5):
Challenge: Need IC50, item `O=C(NCc1ccc(S(=O)(=O)c2ccc(C3CCCCC3)cc2)cc1)c1cnc2nccn2c1`
Response given: 5.8

Challenge: What do you have for `Cc1cc(C)cc(S(=O)(=O)c2ccc(CNC(=O)c3cc4ccncc4s3)cc2)c1` ?
Response given: 5

Challenge: Also, `Cc1cc(F)ccc1S(=O)(=O)c1ccc(CNC(=O)c2cnc3nccn3c2)cc1` please.
Response given: 13

Challenge: Next compound: `N#Cc1ccccc1S(=O)(=O)c1ccc(CNC(=O)c2ccc3nccn3c2)cc1`
Response given: 15.6

Challenge: Next compound up: `O=C(Nc1ccc(S(=O)(=O)c2ccccc2)cc1)c1cccnc1`
Response given: 12000

More entries:
Challenge: Could you share which IC50 value was measured for `CCCOc1cccc(S(=O)(=O)c2ccc(CNC(=O)c3cc4ccncc4s3)cc2)c1` ?
Response given: 4

Challenge: Here is the next compound: `Cc1cc(Cl)cc(S(=O)(=O)c2ccc(CNC(=O)c3ccc4nccn4c3)cc2)c1`
Response given: 6.4

Challenge: Also need `COc1c(C)cc(S(=O)(=O)c2ccc(CNC(=O)c3cc4ccncc4s3)cc2)cc1C` , thanks.
Response given: 9.8

Challenge: What would you report for `N#Cc1cccc(S(=O)(=O)c2ccc(CNC(=O)c3cnc4nccn4c3)cc2)c1` ?
Response given: 5.9

---

target: NAMPT (Homo sapiens); construct: His tag; host or cells: E. coli; experiment: Biochemical inhibition assay: NAMPT enzymatic reaction, NMN quantified by mass spectrometry; details: NAMPT enzymatic reaction; read-out: Biochem IC50
# IC50 values compiled below
Write it as a number; the unit nM goes unstated.

// worked examples, IC50 included
Challenge: Quick one: IC50 of `O=C(NCc1ccc(S(=O)(=O)c2c(Cl)cccc2Cl)cc1)c1cc2cnccc2[nH]1` ?
Response given: 44.7

Challenge: Try the compound `CCc1cccc(S(=O)(=O)c2ccc(CNC(=O)c3cc4ccncc4o3)cc2)c1`
Response given: 8.7

Challenge: Do the same for `CCOc1ccc(S(=O)(=O)c2ccc(CNC(=O)c3cc4ccncc4o3)cc2)c(C)c1` please
Response given: 21.6

Challenge: Quick one: `COc1ccc(S(=O)(=O)c2ccc(CNC(=O)c3cc4cnccc4[nH]3)cc2)c(Cl)c1`
Response given: 9.3

Challenge: Same read-out for `COc1cc(S(=O)(=O)c2ccc(CNC(=O)c3ccc4nccn4c3)cc2)ccc1F` ?
Response given: 19.7

Challenge: Now the same for `O=C(NCc1ccc(S(=O)(=O)Nc2ccccc2N2CCOCC2)cc1)c1cc2cnccc2[nH]1`
Response given: 19

Challenge: Ok, now `COc1c(C)cc(S(=O)(=O)c2ccc(CNC(=O)c3cc4ccncc4o3)cc2)cc1C`
Response given: 5.6

Challenge: Same question for `COc1ccc(F)c(S(=O)(=O)c2ccc(CNC(=O)c3cnc4[nH]ncc4c3)cc2)c1` please.
Response given: 139

Challenge: Another: `O=C(NCc1ccc(S(=O)(=O)N2CCCCC2)cc1)c1ccc2[nH]ncc2c1`
Response given: 18

Challenge: Would you kindly repeat that for `CCOc1cc(F)ccc1S(=O)(=O)c1ccc(CNC(=O)c2cc3ccncc3o2)cc1` ?
Response given: 7.7

Others:
Challenge: State the recorded IC50 for this entry: `COc1ccccc1S(=O)(=O)c1ccc(CNC(=O)c2cc3cnccc3[nH]2)cc1`
Response given: 9

Challenge: Input `COc1ccc(Cl)cc1NS(=O)(=O)c1ccc(CNC(=O)c2cc3cnccc3[nH]2)cc1`
Response given: 197

Challenge: For `Cc1ccc(S(=O)(=O)c2ccc(CNC(=O)c3cnc4[nH]ncc4c3)cc2)c(C)c1` then?
Response given: 61.2

Challenge: For `Cc1ccc(F)cc1S(=O)(=O)c1ccc(CNC(=O)c2cc3ccncc3s2)cc1` then?
Response given: 3

Challenge: Also, `CCCOc1cccc(S(=O)(=O)c2ccc(CNC(=O)c3cc4ccncc4o3)cc2)c1` please.
Response given: 10.1

Challenge: Moving on to the next compound: `N#Cc1ccc(S(=O)(=O)c2ccc(CNC(=O)c3cc4cnccc4[nH]3)cc2)cc1`
Response given: 11.1

Challenge: Same read-out for `Cc1cccc(S(=O)(=O)c2ccc(CNC(=O)c3ccc4nccn4c3)cc2)c1` ?
Response given: 8.12

Challenge: Entry `COc1ccc(S(=O)(=O)c2ccc(CNC(=O)c3cnc4nccn4c3)cc2)c(Cl)c1` please
Response given: 6.5
